- SYSTEM_UNDER_TEST: T1, HAUSP TRAF-like domain (residues 53–206) (UniProt Q93009 53-206)
- T1 construct: Cloned into pGEX-2T; source: E. coli BL21(DE3), purified to homogeneity
- ASSAY: ITC; 10 mM HEPES (pH 8.0), 100 mM NaCl; 4 °C
- STUDY_CONDITIONS: both partners purified
OBSERVED_PROPERTY: Kd (µM)
Only the number, expressed in µM, is required.

Exam item: If you can, please state the reported Kd value of ERSSSSESTGTPSNPDLDAGVSEHSGDWLDQDSVS (peptide, UniProt Q00987 208-242, looked up, human MDM2, residues 208-242; also called MDM2 (residues 208–242) peptide) [MDM2 peptide (residues 208–242)] .
Marked response: 3

Numbers sourced from paper PMC1334386.
